Experiment: Plasma trough and peak concentrations in patients on intravenous polymyxin and tigecycline (HPLC-MS/MS)
Conditions: both, human, in vivo, iv, peak concentration of colistin sulfate, range over patients, 12 adult patients, iv, steady state, after 7th administration; plasma, HPLC-MS/MS
Source text: Plasma samples were collected from patients receiving simultaneous intravenous polymyxin and tigecycline treatment. Inclusion criteria: ① Patients receiving simultaneous intravenous polymyxin and tigecycline treatment; ② Age ≥ 18 years; ③ Patients who consent to the monitoring of polymyxin and tigecycline blood drug concentrations during treatment. Exclusion criteria: ① Pregnant or lactating women; ② Treatment duration < 3 days; ③ Local administration; ④ Blood dialysis treatment. […]
Structures can show the parent of a compound that is named as a salt. Where a SMILES comes first, the peptide text is derived from it. Bridges are numbered along the chain shown (N, C = ends). [ ]: non-standard residue; d: D form. The star is where a group is joined. X1 = CC[C@H](C)CCCCC(=O)*; Dab = NCC[C@H](N)C(=O)O

{"columns": ["COMPOUND", "level at 0.5 h"],
 "data": [
  ["CC[C@H](C)CCCCC(=O)N[C@@H](CCN)C(=O)N[C@H](C(=O)N[C@@H](CCN)C(=O)N[C@H]1CCNC(=O)[C@H]([C@@H](C)O)NC(=O)[C@H](CCN)NC(=O)[C@H](CCN)NC(=O)[C@H](CC(C)C)NC(=O)[C@@H](CC(C)C)NC(=O)[C@H](CCN)NC1=O)[C@@H](C)O [Colistin sulfate, colistin sulfate] (X1-[Dab]T[Dab][Dab][Dab][dL]L[Dab][Dab]T; lactam 4-C)", "890 to 4560 ng/mL"]
]}
